# measurement_protocol: refractive index (Na D-line) (dimensionless)
# measurement_conditions: 306.2 K; 101.33 kPa; Liquid; Standard Abbe refractometry
Numbers after ± are expanded uncertainties.
A collection of compounds and their measured refractive index
test_readout: refractive index

compound="CCCCn1cc[n+](C)c1.F[B-](F)(F)F [1-butyl-3-methylimidazolium tetrafluoroborate]" measured_result="1.4199 ± 0.0007"
compound="CCCCn1cc[n+](C)c1.COS(=O)(=O)[O-] [1-butyl-3-methylimidazolium methyl sulfate]" measured_result="1.4771 ± 0.0008"
compound="CCCCn1cc[n+](C)c1.F[P-](F)(F)(F)(F)F [1-butyl-3-methylimidazolium hexafluorophosphate]" measured_result="1.4079 ± 0.0007"
compound="CCCCn1cc[n+](C)c1.O=S(=O)([O-])C(F)(F)F [1-butyl-3-methylimidazolium trifluoromethanesulfonate]" measured_result="1.435 ± 0.0008"

###

List of mass density values.
# measurement_conditions: 353.2 K; 101.33 kPa; Liquid; Vibrating tube method
test_readout: mass density (kg/m3)

compound="CCCCn1cc[n+](C)c1.COS(=O)(=O)[O-] [1-butyl-3-methylimidazolium methyl sulfate]" test_readout="mass density" measured_result=1170.6
compound="CCCCn1cc[n+](C)c1.F[B-](F)(F)F [1-butyl-3-methylimidazolium tetrafluoroborate]" test_readout="mass density" measured_result=1163.6
compound="CCCCn1cc[n+](C)c1.F[P-](F)(F)(F)(F)F [1-butyl-3-methylimidazolium hexafluorophosphate]" test_readout="mass density" measured_result=1321.1
compound="CCCCn1cc[n+](C)c1.O=S(=O)([O-])C(F)(F)F [1-butyl-3-methylimidazolium trifluoromethanesulfonate]" test_readout="mass density" measured_result=1261.9

###

# measurement_conditions: 300.2 K; 101.33 kPa; Liquid; Vibrating tube method
Numbers after ± are expanded uncertainties.
Entries and their measured mass density follow.
test_readout: mass density

compound="CCCCn1cc[n+](C)c1.F[B-](F)(F)F [1-butyl-3-methylimidazolium tetrafluoroborate]" measured_result="1199.6 ± 0.9 kg/m3"
compound="CCCCn1cc[n+](C)c1.COS(=O)(=O)[O-] [1-butyl-3-methylimidazolium methyl sulfate]" measured_result="1204.4 ± 1.4 kg/m3"
compound="CCCCn1cc[n+](C)c1.O=S(=O)([O-])C(F)(F)F [1-butyl-3-methylimidazolium trifluoromethanesulfonate]" measured_result="1302.3 ± 1.5 kg/m3"
compound="CCCCn1cc[n+](C)c1.F[P-](F)(F)(F)(F)F [1-butyl-3-methylimidazolium hexafluorophosphate]" measured_result="1362.4 ± 0.9 kg/m3"

###

# measurement_protocol: refractive index (Na D-line) (dimensionless)
# measurement_conditions: 298.2 K; 101.33 kPa; Liquid; Standard Abbe refractometry
± gives the expanded uncertainty stated by the source.
test_readout: refractive index

compound="CCCCn1cc[n+](C)c1.COS(=O)(=O)[O-] [1-butyl-3-methylimidazolium methyl sulfate]" test_readout="refractive index" measured_result="1.4792 ± 0.0008"
compound="CCCCn1cc[n+](C)c1.F[P-](F)(F)(F)(F)F [1-butyl-3-methylimidazolium hexafluorophosphate]" test_readout="refractive index" measured_result="1.4095 ± 0.0007"
compound="CCCCn1cc[n+](C)c1.F[B-](F)(F)F [1-butyl-3-methylimidazolium tetrafluoroborate]" test_readout="refractive index" measured_result="1.4218 ± 0.0007"
compound="CCCCn1cc[n+](C)c1.O=S(=O)([O-])C(F)(F)F [1-butyl-3-methylimidazolium trifluoromethanesulfonate]" test_readout="refractive index" measured_result="1.4368 ± 0.0008"

###

# measurement_protocol: refractive index (Na D-line) (dimensionless)
# measurement_conditions: 307.2 K; 101.33 kPa; Liquid; Standard Abbe refractometry
± gives the expanded uncertainty stated by the source.
Reported refractive index values follow for various compounds
test_readout: refractive index

compound="CCCCn1cc[n+](C)c1.COS(=O)(=O)[O-] [1-butyl-3-methylimidazolium methyl sulfate]" test_readout="refractive index" measured_result="1.4768 ± 0.0008"
compound="CCCCn1cc[n+](C)c1.O=S(=O)([O-])C(F)(F)F [1-butyl-3-methylimidazolium trifluoromethanesulfonate]" test_readout="refractive index" measured_result="1.4348 ± 0.0008"
compound="CCCCn1cc[n+](C)c1.F[B-](F)(F)F [1-butyl-3-methylimidazolium tetrafluoroborate]" test_readout="refractive index" measured_result="1.4197 ± 0.0007"
compound="CCCCn1cc[n+](C)c1.F[P-](F)(F)(F)(F)F [1-butyl-3-methylimidazolium hexafluorophosphate]" test_readout="refractive index" measured_result="1.4077 ± 0.0007"

###

Below, each of the compounds is paired with its reported mass density value.
# measurement_conditions: 306.2 K; 101.33 kPa; Liquid; Vibrating tube method
test_readout: mass density (kg/m3)

compound="CCCCn1cc[n+](C)c1.COS(=O)(=O)[O-] [1-butyl-3-methylimidazolium methyl sulfate]" measured_result=1200.6
compound="CCCCn1cc[n+](C)c1.O=S(=O)([O-])C(F)(F)F [1-butyl-3-methylimidazolium trifluoromethanesulfonate]" measured_result=1297.7
compound="CCCCn1cc[n+](C)c1.F[P-](F)(F)(F)(F)F [1-butyl-3-methylimidazolium hexafluorophosphate]" measured_result=1357.8
compound="CCCCn1cc[n+](C)c1.F[B-](F)(F)F [1-butyl-3-methylimidazolium tetrafluoroborate]" measured_result=1195.6

###

# measurement_protocol: refractive index (Na D-line) (dimensionless)
# measurement_conditions: 303.2 K; 101.33 kPa; Liquid; Standard Abbe refractometry
# refractive index per entry
test_readout: refractive index

compound="CCCCn1cc[n+](C)c1.F[B-](F)(F)F [1-butyl-3-methylimidazolium tetrafluoroborate]" test_readout="refractive index" measured_result=1.4206
compound="CCCCn1cc[n+](C)c1.O=S(=O)([O-])C(F)(F)F [1-butyl-3-methylimidazolium trifluoromethanesulfonate]" test_readout="refractive index" measured_result=1.4357
compound="CCCCn1cc[n+](C)c1.F[P-](F)(F)(F)(F)F [1-butyl-3-methylimidazolium hexafluorophosphate]" test_readout="refractive index" measured_result=1.4085
compound="CCCCn1cc[n+](C)c1.COS(=O)(=O)[O-] [1-butyl-3-methylimidazolium methyl sulfate]" test_readout="refractive index" measured_result=1.4779

###

Below: a set of entries, each annotated with reported mass density.
# measurement_conditions: 299.2 K; 101.33 kPa; Liquid; Vibrating tube method
test_readout: mass density (kg/m3)

molecule="CCCCn1cc[n+](C)c1.O=S(=O)([O-])C(F)(F)F [1-butyl-3-methylimidazolium trifluoromethanesulfonate]" test_readout="mass density" unit_of_measurement=kg/m3 measured_result=1303
molecule="CCCCn1cc[n+](C)c1.COS(=O)(=O)[O-] [1-butyl-3-methylimidazolium methyl sulfate]" test_readout="mass density" unit_of_measurement=kg/m3 measured_result=1205
molecule="CCCCn1cc[n+](C)c1.F[P-](F)(F)(F)(F)F [1-butyl-3-methylimidazolium hexafluorophosphate]" test_readout="mass density" unit_of_measurement=kg/m3 measured_result=1363.2
molecule="CCCCn1cc[n+](C)c1.F[B-](F)(F)F [1-butyl-3-methylimidazolium tetrafluoroborate]" test_readout="mass density" unit_of_measurement=kg/m3 measured_result=1200.3

###

# mass density per entry
# measurement_conditions: 323.2 K; 101.33 kPa; Liquid; Vibrating tube method
test_readout: mass density (kg/m3)

compound="CCCCn1cc[n+](C)c1.F[B-](F)(F)F [1-butyl-3-methylimidazolium tetrafluoroborate]" test_readout="mass density" unit_of_measurement=kg/m3 measured_result=1184
compound="CCCCn1cc[n+](C)c1.O=S(=O)([O-])C(F)(F)F [1-butyl-3-methylimidazolium trifluoromethanesulfonate]" test_readout="mass density" unit_of_measurement=kg/m3 measured_result=1284.7
compound="CCCCn1cc[n+](C)c1.F[P-](F)(F)(F)(F)F [1-butyl-3-methylimidazolium hexafluorophosphate]" test_readout="mass density" unit_of_measurement=kg/m3 measured_result=1344.9
compound="CCCCn1cc[n+](C)c1.COS(=O)(=O)[O-] [1-butyl-3-methylimidazolium methyl sulfate]" test_readout="mass density" unit_of_measurement=kg/m3 measured_result=1189.9

###

# measurement_protocol: refractive index (Na D-line) (dimensionless)
# measurement_conditions: 302.2 K; 101.33 kPa; Liquid; Standard Abbe refractometry
The molecules listed here are annotated with their refractive index.
test_readout: refractive index

molecule="CCCCn1cc[n+](C)c1.F[P-](F)(F)(F)(F)F [1-butyl-3-methylimidazolium hexafluorophosphate]" test_readout="refractive index" measured_result=1.4087
molecule="CCCCn1cc[n+](C)c1.F[B-](F)(F)F [1-butyl-3-methylimidazolium tetrafluoroborate]" test_readout="refractive index" measured_result=1.4208
molecule="CCCCn1cc[n+](C)c1.O=S(=O)([O-])C(F)(F)F [1-butyl-3-methylimidazolium trifluoromethanesulfonate]" test_readout="refractive index" measured_result=1.436
molecule="CCCCn1cc[n+](C)c1.COS(=O)(=O)[O-] [1-butyl-3-methylimidazolium methyl sulfate]" test_readout="refractive index" measured_result=1.4782
